- experiment description: Compound tissue distribution (brain/plasma)
- Format: in vivo
- details: brain and plasma, po; rat, 10 mg/kg p.o. in 50% PEG400, one hour; read-out: Brain/Plasma ratio
readout type: Kp at 1 h

*Q* Quick check: Kp at 1 h of "CCNC(=O)c1ccc(COc2nn3c(-c4cc(C)on4)nnc3c3ccccc23)nc1" ?
*A* < 0.01

*Q* What would you report for "COCCNC(=O)c1ccc(COc2nn3c(-c4cc(C)on4)nnc3c3ccccc23)nc1" ?
*A* < 0.01

* * *

Consider the following compounds; for each one, report its inverse agonism efficacy of the compound/α5IA inverse agonism efficacy.
- tested on: α5β3γ2 receptor (Homo sapiens, UniProt P18507+P31644)
- Construct: expressed in transfected cells; host or cells: HEK-293 (stably transfected)
- Sequence (P31644 32-462): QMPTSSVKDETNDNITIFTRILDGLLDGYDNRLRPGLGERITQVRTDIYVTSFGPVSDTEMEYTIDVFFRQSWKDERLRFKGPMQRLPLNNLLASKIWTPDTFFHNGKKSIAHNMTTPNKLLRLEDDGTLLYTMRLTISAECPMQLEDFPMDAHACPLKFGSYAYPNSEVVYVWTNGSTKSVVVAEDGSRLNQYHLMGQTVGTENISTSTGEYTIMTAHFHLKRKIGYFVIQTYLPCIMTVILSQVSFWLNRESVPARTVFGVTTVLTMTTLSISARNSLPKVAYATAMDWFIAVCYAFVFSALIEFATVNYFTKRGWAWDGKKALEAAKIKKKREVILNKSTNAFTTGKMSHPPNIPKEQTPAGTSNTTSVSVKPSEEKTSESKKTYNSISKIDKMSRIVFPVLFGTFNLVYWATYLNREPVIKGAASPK
- Sequence (P28472 26-473 isoform P28472-2 partner limits assumed): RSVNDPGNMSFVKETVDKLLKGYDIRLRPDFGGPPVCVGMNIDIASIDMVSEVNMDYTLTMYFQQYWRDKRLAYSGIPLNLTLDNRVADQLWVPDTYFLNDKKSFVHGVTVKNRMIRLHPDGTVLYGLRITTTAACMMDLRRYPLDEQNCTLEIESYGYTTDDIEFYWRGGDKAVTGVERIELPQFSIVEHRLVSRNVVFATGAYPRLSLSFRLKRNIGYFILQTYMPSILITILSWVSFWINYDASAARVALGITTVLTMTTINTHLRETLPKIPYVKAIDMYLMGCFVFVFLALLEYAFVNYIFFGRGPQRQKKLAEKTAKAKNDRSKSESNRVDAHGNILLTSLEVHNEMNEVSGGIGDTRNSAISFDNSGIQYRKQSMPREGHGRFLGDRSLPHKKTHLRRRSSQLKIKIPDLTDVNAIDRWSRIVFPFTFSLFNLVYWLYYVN
- Sequence (P18507 40-475): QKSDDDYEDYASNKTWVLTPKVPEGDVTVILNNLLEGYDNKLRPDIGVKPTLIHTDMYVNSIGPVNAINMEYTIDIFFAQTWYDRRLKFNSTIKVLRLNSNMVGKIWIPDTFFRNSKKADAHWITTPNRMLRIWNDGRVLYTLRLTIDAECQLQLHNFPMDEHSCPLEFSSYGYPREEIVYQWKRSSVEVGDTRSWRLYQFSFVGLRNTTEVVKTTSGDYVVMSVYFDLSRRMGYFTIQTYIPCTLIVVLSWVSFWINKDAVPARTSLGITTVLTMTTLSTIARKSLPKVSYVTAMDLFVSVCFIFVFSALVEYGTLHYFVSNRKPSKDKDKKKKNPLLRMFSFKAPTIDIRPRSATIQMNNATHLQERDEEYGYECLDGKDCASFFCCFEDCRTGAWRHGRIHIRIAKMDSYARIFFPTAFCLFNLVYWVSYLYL
- experiment description: Supplementary data for cell level screening: new electrophysiology method (I. Lecker et al)
- Type: cell-based
- details: ratio to the α5IA reference run above in the table (r4 or r29)
Please give only the number in your answer, with no unit.

*Q* Quick check: inverse agonism efficacy of the compound/α5IA inverse agonism efficacy of "Cc1cc(-c2nnc3c4ccccc4c(OCc4ccc(C(=O)NCC5CC5)cn4)nn23)no1" ?
*A* 1.855

*Q* What would you report for "Cc1cc(-c2nnc3c4ccccc4c(OCc4ccc(C(=O)NC5CCN(C)CC5)cn4)nn23)no1" ?
*A* 1.020

*Q* What would you report for Cc1cc(-c2nnc3c4ccccc4c(OCc4ccc(C(=O)NCC5CCCO5)cn4)nn23)no1 (stereo not shown) ?
*A* 1.238

*Q* What would you report for "O=C(NC1CC1)c1ccc(COc2nn3c(-c4cc(CO)on4)nnc3c3ccccc23)nc1" ?
*A* 1.658

*Q* What would you report for "O=C(c1ccc(COc2nn3c(-c4cc(CO)on4)nnc3c3ccccc23)nc1)N1CCS(=O)(=O)CC1" ?
*A* 1.468

*Q* What would you report for "COC1CCN(C(=O)c2ccc(COc3nn4c(-c5cc(C)on5)nnc4c4ccccc34)nc2)CC1" ?
*A* 1.774

*Q* What would you report for "COCCNC(=O)c1ccc(COc2nn3c(-c4cc(C)on4)nnc3c3ccccc23)nc1" ?
*A* 1.902

*Q* What would you report for "CCNC(=O)c1ccc(COc2nn3c(-c4cc(C)on4)nnc3c3ccccc23)nc1" ?
*A* 1.219

*Q* What would you report for "O=C(NC1CCOCC1)c1ccc(COc2nn3c(-c4cc(CO)on4)nnc3c3ccccc23)nc1" ?
*A* 1.196

*Q* What would you report for "Cc1cc(-c2nnc3c4ccccc4c(OCc4ccc(C(=O)N[C@H]5CCC[C@@H]5O)cn4)nn23)no1" ?
*A* 1.689

*Q* What would you report for "Cc1cc(-c2nnc3c4ccccc4c(OCc4ccc(C(=O)NN5CCOCC5)cn4)nn23)no1" ?
*A* 1.075

*Q* What would you report for "C[C@H](CO)NC(=O)c1ccc(COc2nn3c(-c4cc(CO)on4)nnc3c3ccccc23)c(C#N)c1" ?
*A* 1.819

*Q* What would you report for "O=C(c1ccc(COc2nn3c(-c4cc(CO)on4)nnc3c3ccccc23)nc1)N1CCC1" ?
*A* 1.278

*Q* What would you report for "Cc1cc(-c2nnc3c4ccccc4c(OCc4ccc(C(N)=O)cn4)nn23)no1" ?
*A* 1.143

*Q* What would you report for "O=C(NCCO)c1ccc(COc2nn3c(-c4cc(CO)on4)nnc3c3ccccc23)nc1" ?
*A* 1.497

*Q* What would you report for "Cc1cc(-c2nnc3c4ccccc4c(OCc4ccc(C(=O)NCCS(C)(=O)=O)cn4)nn23)no1" ?
*A* 1.726
